Taken from patent US20220296613A1.

# Protocol: Pharmacokinetics of CV-10155 solid dosage forms in fed or fasted beagle dogs
# Recorded Conditions: male, beagle, dog, plasma, po, 30 mg, AUCInf, HPMC-AS formulation, 30 mg PO, pentagastrin/fasted cohort; mean of 4 dogs
Measured Quantity: AUC(0-inf) (ng·h/mL)
Give bare numbers, in ng·h/mL.

State its AUC(0-inf): `C[C@@]1(O)CC[C@@]2(C)[C@@H](CC[C@@H]3[C@@H]2CC[C@]2(C)[C@@H](C(=O)Cn4cc(C#N)cn4)CC[C@@H]32)C1`
8270

* * *

# Tgt: α4β3δ GABAA receptors (Homo sapiens, UniProt P28472+P48169)
# Sequence (P48169 36-554): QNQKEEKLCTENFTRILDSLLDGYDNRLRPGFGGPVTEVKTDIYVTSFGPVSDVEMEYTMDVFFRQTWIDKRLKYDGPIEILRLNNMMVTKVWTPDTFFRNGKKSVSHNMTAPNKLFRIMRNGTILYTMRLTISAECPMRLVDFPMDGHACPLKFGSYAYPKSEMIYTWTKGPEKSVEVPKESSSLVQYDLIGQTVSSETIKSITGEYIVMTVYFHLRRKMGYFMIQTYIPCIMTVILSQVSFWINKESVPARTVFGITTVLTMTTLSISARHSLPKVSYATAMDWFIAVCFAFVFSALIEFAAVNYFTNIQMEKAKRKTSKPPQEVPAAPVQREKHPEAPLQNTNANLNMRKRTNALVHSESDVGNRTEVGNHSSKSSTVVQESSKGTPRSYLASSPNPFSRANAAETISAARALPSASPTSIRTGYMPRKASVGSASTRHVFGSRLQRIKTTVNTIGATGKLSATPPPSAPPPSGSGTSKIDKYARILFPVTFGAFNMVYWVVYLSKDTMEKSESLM
# Sequence (P28472 26-473): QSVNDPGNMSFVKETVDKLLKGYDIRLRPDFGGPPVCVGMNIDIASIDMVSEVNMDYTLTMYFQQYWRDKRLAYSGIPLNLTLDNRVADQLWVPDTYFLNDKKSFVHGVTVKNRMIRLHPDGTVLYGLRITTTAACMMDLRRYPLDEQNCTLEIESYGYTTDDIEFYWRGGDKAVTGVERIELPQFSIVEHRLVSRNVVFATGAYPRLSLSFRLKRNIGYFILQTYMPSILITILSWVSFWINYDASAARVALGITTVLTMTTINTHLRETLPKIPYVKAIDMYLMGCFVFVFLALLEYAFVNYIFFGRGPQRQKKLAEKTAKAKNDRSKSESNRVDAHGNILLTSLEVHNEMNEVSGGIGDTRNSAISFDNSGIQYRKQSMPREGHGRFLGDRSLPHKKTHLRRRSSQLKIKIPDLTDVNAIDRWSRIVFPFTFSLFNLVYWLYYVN
# Sequence (O14764 25-452 partner): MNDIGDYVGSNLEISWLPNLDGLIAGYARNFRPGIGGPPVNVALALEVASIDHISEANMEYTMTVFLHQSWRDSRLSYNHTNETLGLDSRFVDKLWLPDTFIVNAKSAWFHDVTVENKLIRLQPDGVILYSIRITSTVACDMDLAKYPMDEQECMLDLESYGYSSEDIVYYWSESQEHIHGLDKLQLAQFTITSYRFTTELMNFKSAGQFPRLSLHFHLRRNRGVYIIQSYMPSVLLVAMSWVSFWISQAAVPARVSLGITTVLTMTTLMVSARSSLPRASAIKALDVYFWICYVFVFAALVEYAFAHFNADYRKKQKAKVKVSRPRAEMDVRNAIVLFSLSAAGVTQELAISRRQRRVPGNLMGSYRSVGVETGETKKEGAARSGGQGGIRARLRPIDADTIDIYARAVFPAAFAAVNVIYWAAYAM
# Protocol: Synchropatch electrophysiology, potentiation of extra synaptic GABAA receptors
Measured Quantity: EC50 (nM)
Answers are plain numbers, in nM.

# annotated cases, reported EC50 shown
Structure String	Readout Value
C[C@@]1(O)CC[C@@]2(C)[C@@H](CC[C@@H]3[C@@H]2CC[C@]2(C)[C@@H](C(=O)Cn4cc(C#N)cn4)CC[C@@H]32)C1	165
CC(=O)[C@H]1CC[C@H]2[C@@H]3CC[C@H]4C[C@](C)(O)CC[C@]4(C)[C@H]3CC[C@]12C	213

Now consider the entry below.
Indicate the recorded EC50 value for this compound: `C[C@@]1(O)CC[C@H]2[C@H](CC[C@@H]3[C@@H]2CC[C@]2(C)[C@@H](C(=O)Cn4cc(C#N)cn4)CC[C@@H]32)C1`
148

* * *

# Protocol: Pharmacokinetics of CV-10155 solid dosage forms in fed or fasted beagle dogs
# Recorded Conditions: male, beagle, dog, plasma, po, 10 mg, Cmax, HPMC-AS formulation, 10 mg PO, pentagastrin/fasted cohort; mean of 4 dogs
Measured Quantity: Cmax (ng/mL)
One number for each entry, in ng/mL.

Item `C[C@@]1(O)CC[C@@]2(C)[C@@H](CC[C@@H]3[C@@H]2CC[C@]2(C)[C@@H](C(=O)Cn4cc(C#N)cn4)CC[C@@H]32)C1` : provide Cmax
241

* * *

# Protocol: Pharmacokinetics of CV-10155 in preclinical rodent studies
# Recorded Conditions: male, rodent, in vivo, po, 5 mg/kg
Measured Quantity: Cmax (ng/mL)
Numbers only, in ng/mL.

Provide Cmax value for the following compound: C[C@@]1(O)CC[C@@]2(C)[C@@H](CC[C@@H]3[C@@H]2CC[C@]2(C)[C@@H](C(=O)Cn4cc(C#N)cn4)CC[C@@H]32)C1 [CV-10155]
499

* * *

# Protocol: Pharmacokinetics of CV-10155 in preclinical rodent studies
# Recorded Conditions: both, rodent, in vivo, po, 3 mg/kg
Measured Quantity: Tmax

Supply reported Tmax belonging to this molecule: `C[C@@]1(O)CC[C@@]2(C)[C@@H](CC[C@@H]3[C@@H]2CC[C@]2(C)[C@@H](C(=O)Cn4cc(C#N)cn4)CC[C@@H]32)C1`
1.25 to 2.5 h
